# system: HERG channel (UniProt Q12809 1-1159, limits assumed)
# Sequence (Q12809 whole entry): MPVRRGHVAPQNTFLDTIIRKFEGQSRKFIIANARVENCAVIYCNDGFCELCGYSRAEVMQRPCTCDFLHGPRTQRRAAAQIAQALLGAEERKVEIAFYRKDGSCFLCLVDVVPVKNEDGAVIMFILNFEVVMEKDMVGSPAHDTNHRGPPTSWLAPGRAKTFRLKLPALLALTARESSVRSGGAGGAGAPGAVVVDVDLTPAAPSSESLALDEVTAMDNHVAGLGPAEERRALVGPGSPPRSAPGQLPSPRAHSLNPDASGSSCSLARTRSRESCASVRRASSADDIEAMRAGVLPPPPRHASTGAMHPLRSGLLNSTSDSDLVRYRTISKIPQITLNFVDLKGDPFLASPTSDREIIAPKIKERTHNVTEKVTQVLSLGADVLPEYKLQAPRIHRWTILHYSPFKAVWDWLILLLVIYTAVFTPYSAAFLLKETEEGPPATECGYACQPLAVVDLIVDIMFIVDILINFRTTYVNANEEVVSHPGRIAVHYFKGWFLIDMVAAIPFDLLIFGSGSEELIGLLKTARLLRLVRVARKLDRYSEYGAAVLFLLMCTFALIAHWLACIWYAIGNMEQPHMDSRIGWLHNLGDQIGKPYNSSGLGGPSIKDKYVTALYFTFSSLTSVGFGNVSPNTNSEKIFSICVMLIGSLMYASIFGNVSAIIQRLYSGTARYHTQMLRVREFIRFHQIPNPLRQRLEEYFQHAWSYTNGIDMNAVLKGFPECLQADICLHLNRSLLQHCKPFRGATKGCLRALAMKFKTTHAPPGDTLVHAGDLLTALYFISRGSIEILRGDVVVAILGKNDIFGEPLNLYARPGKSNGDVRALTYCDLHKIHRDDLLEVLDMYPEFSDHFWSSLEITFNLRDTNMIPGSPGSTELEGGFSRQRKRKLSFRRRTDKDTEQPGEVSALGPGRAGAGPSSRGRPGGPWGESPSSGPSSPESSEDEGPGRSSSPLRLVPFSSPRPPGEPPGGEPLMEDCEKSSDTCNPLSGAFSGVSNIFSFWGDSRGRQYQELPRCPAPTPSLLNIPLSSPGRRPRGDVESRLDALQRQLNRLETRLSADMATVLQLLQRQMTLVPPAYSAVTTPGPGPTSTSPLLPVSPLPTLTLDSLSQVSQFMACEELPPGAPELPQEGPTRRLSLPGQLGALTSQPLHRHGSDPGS
# experimentalDetails: cell-based or functional assay
[ ]: non-standard residue; d: D form.
measuredParameter: HERG inhibition patch-clamp (% Inhibition of Tail Current at 1 µM) (%)
API: value field is a number in %; no unit string.

Consider the worked cases shown below.
[[record]]
binder = "Ac-[dC][dI][dM][dF][dW][dY][dD][dE][dY][dE]-NH2 (SMILES CC[C@@H](C)[C@@H](NC(=O)[C@@H](CS)NC(C)=O)C(=O)N[C@H](CCSC)C(=O)N[C@H](Cc1ccccc1)C(=O)N[C@H](Cc1c[nH]c2ccccc12)C(=O)N[C@H](Cc1ccc(O)cc1)C(=O)N[C@H](CC(=O)O)C(=O)N[C@H](CCC(=O)O)C(=O)N[C@H](Cc1ccc(O)cc1)C(=O)N[C@H](CCC(=O)O)C(N)=O) [B03 (Ac-cimfwydeye-NH2)]"
observedmeasurement = 84.5

[[record]]
binder = "PEG5000-RMKFDVWDLYFEIVW-NH2 [A16 (PEG5000-RMKFDVWDLYFEIVW-NH2)]"
observedmeasurement = 22.2


Challenge: Entry Ac-RMKFDVWDLYFEIVW-NH2 [A01 (Ac-RMKFDVWDLYFEIVW-NH2)] has what HERG inhibition patch-clamp (% Inhibition of Tail Current at 1 µM)?
Response given: 16.5

Challenge: Entry Ac-WDLYFEIVW-NH2 [A05 (Ac-WDLYFEIVW-NH2)] has what HERG inhibition patch-clamp (% Inhibition of Tail Current at 1 µM)?
Response given: 14.5
